Cited source: patent US9095599B2

Assay: Rat plasma and liver PK after iv administration
Type: in vivo, SD rats
Settings: male, Sprague-Dawley, liver, 0.015 mmol/kg, monitored compound FDURP, iv
metric_name: Tmax (h)
Numbers only; they are read as h.

Fill in: Tmax of Cc1ccccc1COP(=O)(NCc1ccccc1)OCC1OC(n2cc(F)c(=O)[nH]c2=O)CC1O (stereo not shown) is ___
1

###

Experiment: Cytotoxicity assay (LTR-luc luciferase reporter)
Format: cell-based
Conditions: human; Huh-7 LTR-luc cells
metric_name: CC50

Cc1ccccc1COP(=O)(NCc1ccccc1)OCC1OC(n2ccc(=O)[nH]c2=O)C(C)(F)C1O (stereo not drawn) [DGX-105] : > 100 µM
COc1nc(N)nc2c1ncn2C1OC(CO)C(O)C1(C)O (stereo not drawn) [DGX-110] : > 100 µM

Could you share which CC50 value was measured for CC1(F)C(O)C(COP(=O)(NCc2ccccc2)OCc2ccccc2)OC1n1ccc(=O)[nH]c1=O (stereo not drawn) [DGX-106] ?
> 100 µM

And the next one, COc1nc(N)nc2c1ncn2C1OC(COP(=O)(NCc2ccccc2)OCc2ccccc2C)C(O)C1(C)O (stereo not drawn) [DGX-111] ?
69 µM

Note, next up: CC1(F)C(O)C(CO)OC1n1ccc(=O)[nH]c1=O (stereo not drawn) [DGX-103]
> 100 µM

Also COc1ccc(COP(=O)(NCc2ccccc2)OCC2OC(n3ccc(=O)[nH]c3=O)C(C)(F)C2O)cc1F (stereo not drawn) [DGX-104] ?
> 100 µM
